Data origin: PubChem BioAssay AID1919013

- Tested on: LG0703-F498-PDC complex spheroid growth
- ASSAY_NOTES: Anticancer human tumor LG0703-F498-PDC patient-derived lung adenocarcinoma cell line growth inhibition [AhR]
- MEASUREMENT_CONTEXT: second compound 1 µM; first compound 1 µM; stronger effect = lower value
Lab note: class by viability, T/C, see low range = under 40%, mid range = from 40% up to 80%, high range = 80% and over

compound="Nc1ccn(C2OC(CO)C(O)C2(F)F)c(=O)n1 (centres undefined) + Cc1cncc(-c2nc(NCCc3c[nH]c4ccccc34)c3ncn(C(C)C)c3n2)c1" target="LG0703-F498-PDC complex spheroid growth" group_label="low range"
compound="CC1COCCN1c1cc(C2(S(C)(=N)=O)CC2)nc(-c2ccnc3[nH]ccc23)n1 (centres undefined) + Cc1cncc(-c2nc(NCCc3c[nH]c4ccccc34)c3ncn(C(C)C)c3n2)c1" target="LG0703-F498-PDC complex spheroid growth" group_label="high range"
compound="O=C(c1cc(Cc2n[nH]c(=O)c3ccccc23)ccc1F)N1CCN(C(=O)C2CC2)CC1 + CC(CO)NC(=O)c1cc(-c2ccc(Cl)cc2)nn(-c2cnn(C)c2)c1=O" target="LG0703-F498-PDC complex spheroid growth" group_label="mid range"
compound="Nc1ccccc1NC(=O)c1ccc(CNC(=O)OCc2cccnc2)cc1 + Cc1ccccc1N=Nc1ccc(NC(=O)c2ccnn2C)c(C)c1" target="LG0703-F498-PDC complex spheroid growth" group_label="mid range"
compound="Nc1ccn(C2OC(CO)C(O)C2(F)F)c(=O)n1 (centres undefined) + CC(CO)NC(=O)c1cc(-c2ccc(Cl)cc2)nn(-c2cnn(C)c2)c1=O" target="LG0703-F498-PDC complex spheroid growth" group_label="low range"
compound="CC1COCCN1c1cc(-c2ccnn2C)c2ccnc(-c3ccn[nH]3)c2n1 (centres undefined) + Cc1ccccc1N=Nc1ccc(NC(=O)c2ccnn2C)c(C)c1" target="LG0703-F498-PDC complex spheroid growth" group_label="low range"
compound="COc1cc(Nc2ncc3c(n2)-c2ccc(Cl)cc2C(c2c(F)cccc2OC)=NC3)ccc1C(=O)O + Cc1cncc(-c2nc(NCCc3c[nH]c4ccccc34)c3ncn(C(C)C)c3n2)c1" target="LG0703-F498-PDC complex spheroid growth" group_label="mid range"
compound="COc1cccc2c1C(=O)c1c(O)c3c(c(O)c1C2=O)CC(O)(C(=O)CO)CC3OC1CC(N)C(O)C(C)O1 (centres undefined) + Cc1ccccc1N=Nc1ccc(NC(=O)c2ccnn2C)c(C)c1" target="LG0703-F498-PDC complex spheroid growth" group_label="low range"
compound="Nc1ncn(C2CC(O)C(CO)O2)c(=O)n1 (centres undefined) + Cc1cncc(-c2nc(NCCc3c[nH]c4ccccc34)c3ncn(C(C)C)c3n2)c1" target="LG0703-F498-PDC complex spheroid growth" group_label="high range"
compound="NS(=O)(=O)OCC1CC(n2ccc3c(NC4CCc5ccccc54)ncnc32)CC1O (centres undefined) + Cc1cncc(-c2nc(NCCc3c[nH]c4ccccc34)c3ncn(C(C)C)c3n2)c1" target="LG0703-F498-PDC complex spheroid growth" group_label="high range"
compound="CC1(C)CCC(CN2CCN(c3ccc(C(=O)NS(=O)(=O)c4ccc(NCC5CCOCC5)c([N+](=O)[O-])c4)c(Oc4cnc5[nH]ccc5c4)c3)CC2)=C(c2ccc(Cl)cc2)C1 + Cc1ccccc1N=Nc1ccc(NC(=O)c2ccnn2C)c(C)c1" target="LG0703-F498-PDC complex spheroid growth" group_label="high range"
compound="COc1cc(C2c3cc4c(cc3C(OC3OC5COC(C)OC5C(O)C3O)C3COC(=O)C23)OCO4)cc(OC)c1O (centres undefined) + CC(CO)NC(=O)c1cc(-c2ccc(Cl)cc2)nn(-c2cnn(C)c2)c1=O" target="LG0703-F498-PDC complex spheroid growth" group_label="high range"
compound="COc1cccc2c1C(=O)c1c(O)c3c(c(O)c1C2=O)CC(O)(C(=O)CO)CC3OC1CC(N)C(O)C(C)O1 (centres undefined) + CC(CO)NC(=O)c1cc(-c2ccc(Cl)cc2)nn(-c2cnn(C)c2)c1=O" target="LG0703-F498-PDC complex spheroid growth" group_label="low range"
compound="CC1COCCN1c1cc(-c2ccnn2C)c2ccnc(-c3ccn[nH]3)c2n1 (centres undefined) + Cc1cncc(-c2nc(NCCc3c[nH]c4ccccc34)c3ncn(C(C)C)c3n2)c1" target="LG0703-F498-PDC complex spheroid growth" group_label="low range"
compound="COc1cc(C2c3cc4c(cc3C(OC3OC5COC(C)OC5C(O)C3O)C3COC(=O)C23)OCO4)cc(OC)c1O (centres undefined) + Cc1cncc(-c2nc(NCCc3c[nH]c4ccccc34)c3ncn(C(C)C)c3n2)c1" target="LG0703-F498-PDC complex spheroid growth" group_label="high range"
compound="O=C(C=Cc1cccc(S(=O)(=O)Nc2ccccc2)c1)NO + Cc1cncc(-c2nc(NCCc3c[nH]c4ccccc34)c3ncn(C(C)C)c3n2)c1" target="LG0703-F498-PDC complex spheroid growth" group_label="low range"
compound="NS(=O)(=O)OCC1CC(n2ccc3c(NC4CCc5ccccc54)ncnc32)CC1O (centres undefined) + CC(CO)NC(=O)c1cc(-c2ccc(Cl)cc2)nn(-c2cnn(C)c2)c1=O" target="LG0703-F498-PDC complex spheroid growth" group_label="mid range"
compound="Nc1ccccc1NC(=O)c1ccc(CNC(=O)OCc2cccnc2)cc1 + CC(CO)NC(=O)c1cc(-c2ccc(Cl)cc2)nn(-c2cnn(C)c2)c1=O" target="LG0703-F498-PDC complex spheroid growth" group_label="low range"
compound="CC1COCCN1c1cc(-c2ccnn2C)c2ccnc(-c3ccn[nH]3)c2n1 (centres undefined) + CC(CO)NC(=O)c1cc(-c2ccc(Cl)cc2)nn(-c2cnn(C)c2)c1=O" target="LG0703-F498-PDC complex spheroid growth" group_label="mid range"
compound="COc1cc(Nc2ncc3c(n2)-c2ccc(Cl)cc2C(c2c(F)cccc2OC)=NC3)ccc1C(=O)O + CC(CO)NC(=O)c1cc(-c2ccc(Cl)cc2)nn(-c2cnn(C)c2)c1=O" target="LG0703-F498-PDC complex spheroid growth" group_label="mid range"
compound="COc1cc(Nc2ncc3c(n2)-c2ccc(Cl)cc2C(c2c(F)cccc2OC)=NC3)ccc1C(=O)O + Cc1ccccc1N=Nc1ccc(NC(=O)c2ccnn2C)c(C)c1" target="LG0703-F498-PDC complex spheroid growth" group_label="mid range"
compound="O=C(C=Cc1cccc(S(=O)(=O)Nc2ccccc2)c1)NO + Cc1ccccc1N=Nc1ccc(NC(=O)c2ccnn2C)c(C)c1" target="LG0703-F498-PDC complex spheroid growth" group_label="mid range"
compound="CC(C)c1c(-c2ccccc2)nc2c(C#N)c[nH]n2c1=O + Cc1ccccc1N=Nc1ccc(NC(=O)c2ccnn2C)c(C)c1" target="LG0703-F498-PDC complex spheroid growth" group_label="high range"

====

pIC50 values, listed per item
- Tested on: LG0703-F498-PDC complex spheroid growth
- ASSAY_NOTES: Anticancer human tumor LG0703-F498-PDC cell line growth inhibition [AhR];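 note: luminescence taken as a proxy for viable cell amount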
- MEASUREMENT_CONTEXT: curve of first compound; second compound 3.16 µM
pIC50: −log10 of the molar value.
MEASURED_ATTRIBUTE: pIC50

compound="COc1cc(C2c3cc4c(cc3C(OC3OC5COC(C)OC5C(O)C3O)C3COC(=O)C23)OCO4)cc(OC)c1O (stereo not drawn) + CC(CO)NC(=O)c1cc(-c2ccc(Cl)cc2)nn(-c2cnn(C)c2)c1=O" target="LG0703-F498-PDC complex spheroid growth" result="< 5.00"
compound="Nc1ncn(C2CC(O)C(CO)O2)c(=O)n1 (stereo not drawn) + Cc1ccccc1N=Nc1ccc(NC(=O)c2ccnn2C)c(C)c1" target="LG0703-F498-PDC complex spheroid growth" result="< 6.00"
compound="CC[C@@]1(O)C(=O)OCc2c1cc1n(c2=O)Cc2cc3c(CN(C)C)c(O)ccc3nc2-1 + CC(CO)NC(=O)c1cc(-c2ccc(Cl)cc2)nn(-c2cnn(C)c2)c1=O" target="LG0703-F498-PDC complex spheroid growth" result="< 7.00"
compound="Nc1ncn(C2CC(O)C(CO)S2)c(=O)n1 (stereo not drawn) + Cc1cncc(-c2nc(NCCc3c[nH]c4ccccc34)c3ncn(C(C)C)c3n2)c1" target="LG0703-F498-PDC complex spheroid growth" result="> 9.02"
compound="CCc1c2c(nc3ccc(O)cc13)-c1cc3c(c(=O)n1C2)COC(=O)[C@]3(O)CC + Cc1ccccc1N=Nc1ccc(NC(=O)c2ccnn2C)c(C)c1" target="LG0703-F498-PDC complex spheroid growth" result=7.62
compound="Nc1ncn(C2CC(O)C(CO)O2)c(=O)n1 (stereo not drawn) + CC(CO)NC(=O)c1cc(-c2ccc(Cl)cc2)nn(-c2cnn(C)c2)c1=O" target="LG0703-F498-PDC complex spheroid growth" result="< 6.00"
compound="O=C(c1cc(Cc2n[nH]c(=O)c3ccccc23)ccc1F)N1CCN(C(=O)C2CC2)CC1 + Cc1ccccc1N=Nc1ccc(NC(=O)c2ccnn2C)c(C)c1" target="LG0703-F498-PDC complex spheroid growth" result="< 5.00"
compound="Nc1ccn(C2OC(CO)C(O)C2(F)F)c(=O)n1 (stereo not drawn) + Cc1ccccc1N=Nc1ccc(NC(=O)c2ccnn2C)c(C)c1" target="LG0703-F498-PDC complex spheroid growth" result="> 7.50"
compound="CC[C@@]1(O)C(=O)OCc2c1cc1n(c2=O)Cc2cc3c(CN(C)C)c(O)ccc3nc2-1 + Cc1cncc(-c2nc(NCCc3c[nH]c4ccccc34)c3ncn(C(C)C)c3n2)c1" target="LG0703-F498-PDC complex spheroid growth" result=7.53
compound="O=C(C=Cn1cnc(-c2cc(C(F)(F)F)cc(C(F)(F)F)c2)n1)NNc1cnccn1 + CC(CO)NC(=O)c1cc(-c2ccc(Cl)cc2)nn(-c2cnn(C)c2)c1=O" target="LG0703-F498-PDC complex spheroid growth" result=7.57
compound="CC1COCCN1c1cc(C2(S(C)(=N)=O)CC2)nc(-c2ccnc3[nH]ccc23)n1 (stereo not drawn) + Cc1ccccc1N=Nc1ccc(NC(=O)c2ccnn2C)c(C)c1" target="LG0703-F498-PDC complex spheroid growth" result="< 5.00"
compound="Nc1ncn(C2CC(O)C(CO)S2)c(=O)n1 (stereo not drawn) + Cc1ccccc1N=Nc1ccc(NC(=O)c2ccnn2C)c(C)c1" target="LG0703-F498-PDC complex spheroid growth" result="< 6.52"
compound="O=C(C=Cc1cccc(S(=O)(=O)Nc2ccccc2)c1)NO + CC(CO)NC(=O)c1cc(-c2ccc(Cl)cc2)nn(-c2cnn(C)c2)c1=O" target="LG0703-F498-PDC complex spheroid growth" result=6.16
